# Target system: T1, Human GITR (cell surface) (human, UniProt Q9Y5U5 26-241)
# T1 construct: also called hGITR; huGITR
# T1 sequence: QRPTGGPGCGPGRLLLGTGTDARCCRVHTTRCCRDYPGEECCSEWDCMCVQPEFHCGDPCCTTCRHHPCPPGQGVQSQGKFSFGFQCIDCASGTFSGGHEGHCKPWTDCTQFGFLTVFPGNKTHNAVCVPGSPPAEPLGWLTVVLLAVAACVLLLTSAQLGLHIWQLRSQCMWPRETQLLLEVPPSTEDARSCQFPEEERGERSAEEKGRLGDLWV
# Experiment notes: flow cytometry, transiently transfected HEK293F cells, 0.1 mg/mL antibody

>  <Binder>
TRGB35 (antibody, human IgG1, kappa, V domains shown, human IgG1/kappa) VH: EVQLVQSGAEVKKPGESLKISCKGSGYSFTSYWISWVRQMPGKGLEWMGIIDPGDSDTRYSPSFQGQVTISADKSISTAYLQWSSLKASDTAMYYCARHRWSTSLLLDYWGQGTLVTVSS VL: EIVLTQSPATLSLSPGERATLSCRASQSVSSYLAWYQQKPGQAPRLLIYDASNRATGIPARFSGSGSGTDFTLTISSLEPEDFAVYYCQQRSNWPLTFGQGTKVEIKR

>  <binding result>
binds

$$$$
>  <Binder>
TRGB20 (antibody, human IgG1, kappa, V domains shown, human IgG1/kappa) VH: EVQLLESGGGLVQPGGSLRLSCAASGFTFSGYWMNWVRQAPGKGLEWVSGISSDGGSKYYADSVKGRFTISRDNSKNTLYLQMNSLRAEDTAVYYCAKEVVYDHYAALDYWGQGTLVTVSS VL: EIVLTQSPATLSLSPGERATLSCRASQSVNSFLAWYQQKPGQAPRLLIYYASNRATGIPARFSGSGSGTDFTLTISSLEPEDFAVYYCQQYIRWPLTFGQGTKVEIKR

>  <binding result>
binds

$$$$
>  <Binder>
TRGB144 (antibody, human IgG1, kappa, V domains shown, human IgG1/kappa) VH: QVQLVQSGAEVKKPGSSVKVSCKASGGTFSSYAISWVRQAPGQGLEWMGGIIPIFGTANYAQKFQGRVTITADESTSTAYMELSSLRSEDTAVYYCARHGFQRGYLDYWGQGTLVTVSS VL: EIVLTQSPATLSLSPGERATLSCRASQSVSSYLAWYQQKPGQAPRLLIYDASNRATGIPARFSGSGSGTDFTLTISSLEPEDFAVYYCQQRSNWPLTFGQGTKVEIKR

>  <binding result>
binds

$$$$
